- Tgt: SARS-CoV-2 spike RBD (Wuhan-Hu-1) (Severe acute respiratory syndrome …, UniProt P0DTC2)
- Assay Details: SPR
Kindly supply the reported pKd values for the records listed here.
One number for each entry, as −log10 of the molar value.

{"columns": ["Binder", "pKd"],
 "data": [
  ["COVIC-96 (antibody, V domains shown) VH: QVQLVQSGAEVKKPGSSVKVSCKASGGTFSTSTISWVRQAPGQGLEWMGGIIPLFGSPNYAQKFQGRVTITADESTSTAYMELSSLRFEDTAVYYCARLGQWDLLPRWGQGTLVTVSS VL: EIVLTQSPGTLSLSPGERATLSCRASQSVSSSYLAWYQQKPGQAPRLLIYGASSRASGTPDRFSGRGSGTDFTLTISRLEPEDFAVYYCQQYGSSYTFGQGTKLEIK", 7.04],
  ["COVIC-147 (antibody, V domains shown) VH: EVQLVESGGGLIQPGGSLRLSCAASGFTVSSIYMSWVRQAPGKGLEWVSIIYSRGSTDYADSVKGRFTISRDISKNTLYLQMNSLRAEDTAVYYCARDGTMVRGVHAFDIWGQGTMVTVSS VL: DIQMTQSPPSLSASIGDRVTITCQASQDISNYLNWYQQKPGKAPKLLIYDASNLETGVPSRFSGSGSGTDFTLTISNLQPEDIVTYYCQQYDNLPSSFGQGTKLEIKR", 8.64],
  ["COVIC-290 (antibody, V domains shown) VH: QMQLVQSGPEVKKPGTSVKVSCKASGFTFSSSAVQWVRQARGQHLEWIGWIVVGSGNTNYAQKFQERVTLTRDMSTRTAYMELSSLRSEDTAVYYCAAPNCNSTTCHDGFDIWGQGTVVTVSS VL: EIVLTQSPGTLSLSPGERATLSCRASQSVRSSYLGWYQQKPGQAPRLLIYGASSRATGIPDRFSGSGSGTDFTLTISRLESEDFAVYYCQQYDNSPWTFGQGTKVEIK", 9.49],
  ["COVIC-21 (antibody, V domains shown) VH: EVQLLESGGGLVQPGGSLRLSCAASGFTFSDFAMAWVRQAPGKGLEWVSAISGSGDITYYADSVKGRFTISRDNSKNTLYLQMNSLRAEDTAVYYCAREADGLHSPWHFDLWGQGTLVTVSS", 9.68],
  ["COVIC-265 (antibody, V domains shown) VH: QVQLVESGGGLVQPGGSLRLSCTVSGIDLSSYAMGWVRQAPGKGLEYIGIISGSGSTDYANWAKGRFTISRDNSKNTLYLQMNSLRAEDTAVYYCARAGYGVYGYAKYYGMDPWGQGTLVTVSS VL: DIQMTQSPSSLSASVGDRVTITCKASEDIHYGLNWYQQKPGKAPKLLIYGATTLESGVPSRFSGSGSGTDFTLTISSLQPEDFATYYCQQGYSTPLTFGGGTKVEIK", 8.81]
]}

Next up:
What pKd value was documented for this binder, COVIC-263 (antibody, V domains shown) VH: QVQLQESGPRLVKPSETLSLTCTVSGGSISGSNYFWGWIRQPPGKGLEWIGTIYYGGSTYYNPSLKSRVTISVDTSENQFSLKLSSVTAADTAVYYCANLAWLRGYFDYWGQGTLVTVSS VL: NFMLTQPHSVSESPGKTVTISCTRSSGSIASNYVQWYQQRPGSAPTTVIYEDNQRPSGVPDRFSGSIDSSSNSVSLTISGLKTEDEADYYCQSYDSSNWVFGGGTKLTVLG ?
10.06
